- experiment_summary: NCI Yeast Anticancer Drug Screen. Data for the mlh1 rad18 strain (AID 175)
- condition: S. cerevisiae mlh1 rad18 strain growth inhibition; at 50.0 µM; active compounds read high
The panel holds about 79,000 compounds, 15% with a hit somewhere; the sample as a whole holds those more often. Calls of active or inactive are those of the source. Rule as the data show it: active = growth inhibition above about 70%; inactive = the rest.

# molecule, growth inhibition
data = [
    ("[N-]=[N+]=NCC(O)Cn1cnc2c(NC(=O)c3ccccc3)ncnc21 (configuration not stated)", "7.2% (inactive)"),
    ("CCOC(=O)C1=C(C(=O)c2ccccc2)C(c2ccc([N+](=O)[O-])cc2)C(C(=O)c2ccccc2)=C(C(=O)OCC)N1", "7.5% (inactive)"),
    ("CSc1nc2c(c(=O)[nH]1)CC(=O)N2", "-3.1% (inactive)"),
    ("CC(=O)c1ccc(N2C(=O)CC(NC3CCCCC3)C2=O)cc1 (configuration not stated)", "-17.4% (inactive)"),
    ("CC(=O)OCC(=O)[C@@]1(O)CC[C@H]2[C@@H]3C[C@@H](C)[C@@]4(O)CC5(CC[C@]4(C)[C@H]3[C@@H](O)C[C@@]21C)OCC(C)(C)CO5", "-11.2% (inactive)"),
    ("CC(C)CC(C)C", "25.1% (inactive)"),
    ("O=C[C@H](O)CO", "17.4% (inactive)"),
    ("O=C1Cn2c(cc(=O)c3ccccc32)O1", "14.8% (inactive)"),
    ("CC(C)CCC[C@@H](C)[C@H]1CC[C@H]2[C@@H]3CC[C@H]4OC(=O)CC[C@]4(C)[C@H]3CC[C@]12C", "-9.85% (inactive)"),
    ("[N-]=[N+]=Nc1cc(=O)n(-c2ccccc2)c(=O)n1-c1ccccc1", "32.2% (inactive)"),
    ("O=C(NO)c1ccc(O)c(O)c1", "-39% (inactive)"),
    ("C[n+]1cc(-c2ccccc2)cc2ccccc21", "-14.5% (inactive)"),
    ("CCN(CC)c1nc(N(C)C)nc(N(C)C)n1", "7% (inactive)"),
    ("CC(Oc1cc2oc(=O)cc(-c3ccccc3)c2cc1Cl)C(=O)O (configuration not stated)", "-7.1% (inactive)"),
    ("CCOC(=O)C(CCCCS(=O)(=O)O)C(=O)OCC", "11.2% (inactive)"),
    ("CCCCN1CSC(=S)N(CCCC)C1", "37% (inactive)"),
    ("CC(=O)OCCc1cccc(C)c1", "7.3% (inactive)"),
]
